Assay: yeast display, Sf9 membrane polyspecificity reagent, FACS + sequencing; frameworks hold sequencing errors

Residues: QVQLVESGGGLVQAGGSLRLSCAASGFTFGGNVMGWYRQAPGKESELVAAITYSGGSTNYADSVKGRFTISRDNAKNTVYLQMNSLKPEDTAVYYCAAGYSYVYWSESAYVYWGQGTQVSVSS
polyreactivity (PSR sort gate): low polyreactivity

Residues: QVQLVESGGGLVQAGGSLRLSCAASGFTFNGYAMGWYRQAPGKERELVAGITRRGGITYYADSVKGRFTISRDNAKNTVYLQMNSLNPEDTAVYYCNAYPRYIIPSIVNGYNYWGQGTQVTVSS
polyreactivity (PSR sort gate): high polyreactivity

Residues: QVQLVESGGGLVQAGGSLRLSCAASGGIFWYYTMGWYRQAPGKERELVATISSGGRTYYADSVKGRFTISRDNAKNTVYLQMNSLKPEDTAVYYCAAVGWYNDYYWGQGTQVTVSS
polyreactivity (PSR sort gate): high polyreactivity

Residues: QVQLVESGGGLVQAGGSLRLSCAASGRTFDINAMGWYRQAPGKERELVAAISGRGGRTYYADSVKGRFTISRDNAKNTVYLQMNSLKPEDSAVYYCAARAQWSSLEYWGQGTQVTVSS
polyreactivity (PSR sort gate): high polyreactivity

Residues: QVQLVESGGGLFQAGGSLRLSCAASGFTFSFNTMGWYRQAPVKERELVAAIRNNGGGTNYADSVKGRFTISRDKAMNTVYLQMNSLKPEDTAVYYCAADRIYAWFGRLYYWGQGTQVTGSS
polyreactivity (PSR sort gate): low polyreactivity
